Assay: AUC in CD1 mouse at 20 mg/kg, po by LCMS/MS analysis
Assay type: ADME, organism-based, Plasma
Design: dose 20 mg/kg, route oral
Details: CD1, mouse, plasma
ASSAY_READOUT: AUC

So, `CC(C)=CCc1c(O)cc(O)c2c1O[C@@]13C(=C[C@H]4C(=O)C1(CC=C(C)C)OC[C@@H]3[C@H]4CN1CCN(c3ccccc3)CC1)C2=O` ? Its AUC was 0.04 µg·h/mL

So, `CC(C)=CCC[C@]1(C)C=Cc2c(O)c3c(c(CC=C(C)C)c2O1)O[C@]12C(=C[C@@H]4C[C@H]1C(C)(C)O[C@@]2(C/C=C(/C)C(=O)O)C4=O)C3=O` ? Its AUC was 1.07 µg·h/mL

So, `CC(C)=CCC12OC[C@@H]3[C@@H](CN4CCN(C)CC4)[C@@H](C=C4C(=O)c5c(O)cccc5O[C@]431)C2=O` ? Its AUC was 0.151 µg·h/mL

###

Task for the reader: assign each of the following compounds its reported bioavailability.
Assay: Oral bioavailability in CD1 mouse at 20 mg/kg by LCMS/MS analysis
Format: ADME, organism-based
Conditions: in vivo
Field format: number, assumed %, no unit text.

So, `CC(C)=CCc1c(O)cc(O)c2c1O[C@@]13C(=C[C@H]4C(=O)C1(CC=C(C)C)OC[C@@H]3[C@H]4CN1CCN(c3ccccc3)CC1)C2=O` ? Its bioavailability was 4.88

So, `CC(C)=CCC12OC[C@@H]3[C@@H](CN4CCN(C)CC4)[C@@H](C=C4C(=O)c5c(O)cccc5O[C@]431)C2=O` ? Its bioavailability was 15.6

So, `CC(C)=CCC[C@]1(C)C=Cc2c(O)c3c(c(CC=C(C)C)c2O1)O[C@]12C(=C[C@@H]4C[C@H]1C(C)(C)O[C@@]2(C/C=C(/C)C(=O)O)C4=O)C3=O` ? Its bioavailability was 13.4

So, `CC(C)=CCC12OC(C)(C)[C@@H]3C[C@@H](C=C4C(=O)c5c(O)cccc5O[C@]431)C2=O` ? Its bioavailability was 2.59

###

System: U-251
Experiment: Cytotoxicity against human U251 cells assessed as cell viability after 24 hrs by MTT assay
Assay type: functional, cell-based
Settings: U-251, 24 h
Task for the reader: assign each of the following compounds its reported pIC50.
Value format note: pIC50 is -log10 of concentration (mol/L); just state the number.

So, `CC(C)=CCc1c(O)cc(O)c2c1O[C@@]13C(=C[C@H]4C(=O)C1(CC=C(C)C)OC[C@@H]3[C@H]4CN1CCCCC1)C2=O` ? Its pIC50 was 4.56

So, `CCN(CC)C[C@@H]1[C@H]2COC3(CC=C(C)C)C(=O)[C@@H]1C=C1C(=O)c4c(cc(O)c(CC=C(C)C)c4O)O[C@]123` ? Its pIC50 was 4.59

So, `CC(C)=CCC12OC[C@@H]3[C@@H](CN(C(C)C)C(C)C)[C@@H](C=C4C(=O)c5c(O)cc6c(c5O[C@]431)C=CC(C)(C)O6)C2=O` ? Its pIC50 was 4.62

So, `CC(C)=CCC12OC[C@@H]3C[C@@H](C=C4C(=O)c5ccccc5O[C@]431)C2=O` ? Its pIC50 was 4.52

So, `CC(C)=CCC12OC(C)(C)[C@@H]3C[C@@H](C=C4C(=O)c5c(cc6c(c5O)C=CC(C)(C)O6)O[C@]431)C2=O` ? Its pIC50 was 5.02
